Value source: patent US20110123544A1

Target: T1, recombinant human IL-12 (rhIL-12) (human, UniProt P29459 23-219; P29460 23-328)
T1 chain 1: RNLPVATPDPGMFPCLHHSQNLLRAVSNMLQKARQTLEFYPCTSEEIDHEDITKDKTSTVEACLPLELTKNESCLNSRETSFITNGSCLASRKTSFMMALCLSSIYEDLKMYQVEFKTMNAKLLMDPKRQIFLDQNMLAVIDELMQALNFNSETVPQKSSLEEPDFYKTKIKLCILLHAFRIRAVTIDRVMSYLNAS
T1 chain 2: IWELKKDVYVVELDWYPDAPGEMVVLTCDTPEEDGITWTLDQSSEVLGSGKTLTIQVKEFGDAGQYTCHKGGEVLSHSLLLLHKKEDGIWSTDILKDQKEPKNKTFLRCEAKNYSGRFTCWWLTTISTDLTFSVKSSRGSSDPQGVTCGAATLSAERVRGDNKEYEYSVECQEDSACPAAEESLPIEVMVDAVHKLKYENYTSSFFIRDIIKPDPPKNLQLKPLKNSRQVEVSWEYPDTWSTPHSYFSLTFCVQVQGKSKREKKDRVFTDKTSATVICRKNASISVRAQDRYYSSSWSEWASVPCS
Assay: BIAcore
QUANTITY_KIND: koff

[
  {
    "BINDER": "SGGRSNIGSNLVK [Y61 L32 L]",
    "QUANTITY_KIND": "koff",
    "VALUE_OBSERVED": "0.00215 s⁻¹"
  }
]

Form: binder = SGGRSNIGSHTVK [Y61 L31 H] ; koff = 0.000315 s⁻¹

Form: binder = SGGRSNIGSNCVK [Y61 L32 C] ; koff = 0.00381 s⁻¹
